Listed below: apparent KD of MS2 coat protein values for each entry.
Tested on: MS2 coat protein
Measurement Protocol: apparent KD of MS2 coat protein; higher = weaker reporter binding
Assay Context: Eterna round: R107; input ligand: none
Reply with a number, then the unit it belongs to.

Consider the reported apparent KD of MS2 coat protein for these sequences:
UACAUGAGGAUCACCCAUGUGUAGAGGGAUACCAGUGACAGUAAGCGCCCUUGGCAGCCCGUGAACAAUGGGUGAGCUAAAUAGU [#18 Exclusion-TheophyllineA] :: 37.9 nM
ACAUGAGGAUCACCCAUGUGUGUAAGUUCUCGAGGACCGGUACGGCCGCCACUCGAACGAGUGUAACGUUAUACUUAGUAUAAUG [SS Trp A s4] :: 11.4 nM
GUAAGAGUAGGAAGGAGCGCUUUACAUGAGGAUCACCCAUGUGUGCCCUCAAUUUCGGUAAAGCAGGUAGGUCGCCUAAACUUGC [Tiqurabi] :: 34.5 nM
AUAACAUGAGGAUCACCCAUGUAACCUGAAGGAGCGGACGAAAGUCCAGGUAGGUCGCAGGACUCCUUCAACAUGGGAGAGGGAG [SSArg-A #27 NuPack the Brourd] :: 99 nM
GUGACUUACGGGCGCCAUUUGUAAUAGGAAGGAGCGGCGAAAUAGCCAGGUAGGUCGCCUAUACAUGAGGAUCACCCAUGUCACC [Esatbileor] :: 91.9 nM
GGACUAACUCGAAGGAGCGACACGCAGAAACUGCAAUUUCCUCCACACGAGGAUCACCCGUGUCAGGUAGGUCGCGAGUUAGUCG [ArgBX 29] :: 21.8 nM
GGAUAGGACACGGCCGCCACUAUCUAGGAUACUAGCAACAUUUGGGUAUAUGAGGAUCACCCAUAUAGGACCGGGUGUCCUAUCG :: 214 nM
AGUUGACGAAAGUCAGCAACAUGAUCCGAAGGAGCGGGCGAAAGCCCAGGUAGGUCGCGGACAUGAGGAUCACCCAUGUCUCCUU [MAT - Exclusion Arginine A - Mod of Eli - D12] :: 73.4 nM
UGAUGGUACGGAAGGAGCGUGUAAGAACAAGAACAUGAGGAUCACCCAUGUAUUAAUUUAACACAGGUAGGUCGCCGUGUUAUUG [11.H] :: 29.2 nM
UGAACAUGAGGAUCACCCAUGUAGAGGGAAGGAGCGUCGAAGAAGACAGGUAGGUCGCCCAGAAAGAAAUCCUCAUGGAUAAGAA [Same State Arginine A GF2] :: 54.4 nM

Q: For the sequence shown here, AAUCAUAGGGCGGCCGCCACUAAACAUGAGGAUCACCCAUGUCUCGAGGGCUUGCGUUUGGGAAGUAGGACCGGGCCAAUAGUAA [Tryp B Ex Mod2] , give the reported apparent KD of MS2 coat protein.
A: 19.1 nM

Q: For the sequence shown here, AUUUUCGUAGGUUAAAGUUUAGAAACUGAAGGAGCGUGGUAUUACACAGGUAGGUCGCAGAUUUUACAUGAGGAUCACCCAUGUU [JR_ExcArginiA_Sub011] , give the reported apparent KD of MS2 coat protein.
A: 22 nM

----------
Listed below: apparent KD of MS2 coat protein values for each entry.
System: MS2 coat protein
Measurement Protocol: apparent KD of MS2 coat protein; designed switch direction (-1 OFF switch, 1 ON switch): 1; higher = weaker reporter binding
Assay Context: input ligand: microRNA oligo, concentration not stated
Use µM as the unit, but write only the number.

GGCCUGCCGCAAGGAUAUGAAGCUUUCGCUCCGUCAGAAGGUGCACAUGAGGAUCACCCAUGUAUGCAGGCCAAGAAAUAAACC [Tisoenat] (Eterna round: R96, puzzle: Same State NG 1) :: 0.0259
AAUUAAGAUUAAGGAUAUCACGUCGUUUAGACGUGAGAAGGUGAUCAUAACAUGAGGAUCACCCAUGUAUUACAUGAAUUAAUU [SSNG1/3-B3] (Eterna round: R96, puzzle: Same State NG 1) :: 0.284
UUGGUUCUCGUAGGAUAUGUAGGAUAUUCCUACAUGAGGAUCACCCAUGUUCGCAUGGAAGAAGGACAGAAGGACGAUCACCAU [pwkr ssNG2 2FMN + 1F5.18] (Eterna round: R96, puzzle: Same State NG 2) :: 0.00188
GCCGCGUUUAACGCCUACAUGAGGAUCACCCAUGUAUGUAGGCAGGAUAUCGUUUGCUUUGCAAACGAGAAGGGCUGUAGUGGC [salish99_SSNG3_R04_006] (Eterna round: R96, puzzle: Same State NG 3) :: 0.0739

Q: For the sequence shown here, UGUACUUUCAUAGGAUAUCAUGCGAAAAUUGCGUGAGAAGGGUGAAUACUGUCUUUCUAAGAGUACAUGAGGAUCACCCAUGUA [SameState NG1 #63] (Eterna round: R96, puzzle: Same State NG 1) , give the reported apparent KD of MS2 coat protein.
A: 0.0802
